# Test system: Human immunodeficiency virus 1
# METHOD: Antiviral activity against CXCR4 tropic HIV1 3B infected in human MAGI-CCR5/CXCR4 cells measured after 2 to 6 days by beta-galactosidase reporter gene assay
# Format: functional, organism-based
# TEST PARAMETERS: Human immunodeficiency virus 1, 3B
RECORDED ENDPOINT: IC50 (nM)
Only the number, expressed in nM, is required.

Task: Recorded IC50 of `NCCCCN(C[C@H]1Cc2ccccc2CN1)[C@H]1CCCc2ccccc21` , please.
Output: 1500

Task: Now consider `NCCN(C[C@H]1Cc2ccccc2CN1)[C@H]1CCCc2cccnc21` and answer again.
Output: 6200

Task: Now consider `NCCCN(C[C@H]1Cc2ccccc2CN1)[C@H]1CCCc2cccnc21` and answer again.
Output: 380

Task: Now consider `NCCCCN(C[C@@H]1CCc2ccccc2N1)[C@H]1CCCc2cccnc21` and answer again.
Output: 30000

Task: Now consider `NCCCCN(C[C@H]1CCc2ccccc2N1)[C@H]1CCCc2cccnc21` and answer again.
Output: 250

Task: Now consider `NCCCCN(C[C@H]1CCCCN1)[C@H]1CCCc2cccnc21` and answer again.
Output: 1120

Task: Now consider `NCCCCN(C[C@@H]1Cc2ccccc2CN1)[C@H]1CCCc2cccnc21` and answer again.
Output: 1400

Task: Now consider `NCCCCN(C[C@H]1NCCc2ccccc21)[C@H]1CCCc2cccnc21` and answer again.
Output: 450

Task: Now consider `NCCCCN(C[C@@H]1NCCc2ccccc21)[C@H]1CCCc2cccnc21` and answer again.
Output: 30000

Task: Now consider `NCCCCN(C[C@H]1Cc2ccccc2CN1)[C@H]1CCCc2cccnc21` and answer again.
Output: 5

Task: Now consider `NCCCCCN(C[C@H]1Cc2ccccc2CN1)[C@H]1CCCc2cccnc21` and answer again.
Output: 170

The values you see were collected from ChEMBL document CHEMBL4382290.
